subjectOfTest: T1, 15N-labeled PIN1 WW domain (PIN1 residues 1-50) (UniProt Q13526 1-50)
T1 construct: PIN1 residues 1-50 (WW domain); The methods describe a pET28 His6-TEV construct for PIN1; also called 15N-PIN1-WW; source: expressed and purified, 15N-labeled
assayNotes: NMR titration; 1H-15N HSQC of 15N-PIN1-WW at constant concentration, peptide serially diluted (reverse titration), 25 °C, 600 MHz; fit to a simple bimolecular model; apparent
protocolConditions: both partners purified
Where no end group is shown, it is not given here. [ ]: non-standard residue; d: D form. pS = N[C@@H](COP(=O)(O)O)C(=O)O
metricName: pKd
# pKd is unitless: minus log10 of the molar concentration; print number only

Looking up TNYGAVL[pS]PSEKSYQEGGFPNI (IRAK-M (IRAK3) residues 103-124; also called IRAK-M phosphopeptide; pIRAK-M-pS110; source: synthetic peptide (Tufts University Core Facility)) [IRAK-M-pS110 peptide (IRAK-M residues 103-124 with Ser110 phosphorylated)] , I see its pKd listed as 4.22
